target: UniProtKB Z9YNX0M2M8; assay: IC50 competition assay, PepTSh WT proteoliposomes; conditions: competition for dipeptide uptake

>  <item_smiles>
NCC(=O)CCC(=O)O

>  <IC50, mM>
10.4

$$$$
